molecular target: hROMK (hKir1.1) (Homo sapiens); assay: Thallium Flux Assay (ROMK channel functional thallium flux, FLIPR-Tetra); settings: HEK293 cells stably expressing hROMK (hKir1.1); 30 min compound incubation
Sequence (P48048 whole entry): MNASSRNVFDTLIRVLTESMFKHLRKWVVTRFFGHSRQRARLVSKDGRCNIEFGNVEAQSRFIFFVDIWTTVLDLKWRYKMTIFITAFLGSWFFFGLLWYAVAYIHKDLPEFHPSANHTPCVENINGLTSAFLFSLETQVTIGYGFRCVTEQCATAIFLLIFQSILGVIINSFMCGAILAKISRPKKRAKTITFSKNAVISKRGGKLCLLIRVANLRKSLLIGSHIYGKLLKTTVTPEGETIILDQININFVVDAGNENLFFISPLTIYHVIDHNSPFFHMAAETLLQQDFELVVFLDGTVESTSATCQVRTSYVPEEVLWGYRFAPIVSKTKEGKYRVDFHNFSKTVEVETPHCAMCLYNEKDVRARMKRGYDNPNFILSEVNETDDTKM
Listed compounds paired with reported IC50
Please state the number and follow it with the unit.

stdin: Which IC50 value belongs to CC1=C(N2CC(O)C3(CCN(CCc4ccc(-n5cnnn5)nc4)CC3)C2=O)COC1=O (single isomer, unassigned) [Example 245] ?
stdout: 20 nM

stdin: Entry under review: CC1=C(N2C(=O)C3(CCN(C[C@@H](O)c4ccc(-n5cnnn5)nn4)CC3)CC2C)COC1=O (single isomer, unassigned) [Example 124] . Reported IC50?
stdout: 40 nM

stdin: For `CC1=CN(C2=C(C)C(=O)OC2)C(=O)C12CCN(CCc1ccc(-n3cnnn3)nn1)CC2` , what is its reported IC50?
stdout: 20 nM

stdin: I would be grateful if you could share the reported IC50 for COC1CN(CCc2nnc(-n3cnnn3)cc2C)CCC12CCN(C1=C(C)C(=O)OC1)C2=O (single isomer, unassigned) [Example 259] .
stdout: 100 nM

stdin: Name the recorded IC50 for CC1=C(N2CCC3(CCN(C[C@H](O)c4ccc(-n5cnnn5)nc4C)CC3O)C2=O)COC1=O (single isomer, unassigned) [Example 202] .
stdout: 60 nM

stdin: Dear colleague, I am looking for the recorded IC50 of the following compound: CC1=C(N2CCC3(CCN(CCc4nnc(-n5cnnn5)cc4C)CC3F)C2=O)COC1=O (single isomer, unassigned) [Example 267]
stdout: 10 nM
